# System: HSC2 (primary human Schwann cells)
# Assay procedure: drug sensitivity score (DSS, CellTox-Green cytotoxicity, 72 h) (DSS (dimensionless)); higher = more cytotoxic; extreme values may be limits of the assay
Measurement label: drug sensitivity score
One number for each entry.

{"Molecule": "CS(=O)(=O)c1ccc(C2=C(c3ccccc3)C(=O)OC2)cc1 [Rofecoxib] (max concentration tested 10000 nM)", "Observed measurement": 0}
{"Molecule": "CO[C@H]1C[C@@H]2CC[C@@H](C)[C@@](O)(O2)C(=O)C(=O)N2CCCC[C@H]2C(=O)O[C@H]([C@H](C)C[C@@H]2CC[C@@H](OP(C)(C)=O)[C@H](OC)C2)CC(=O)[C@H](C)/C=C(\\C)[C@@H](O)[C@@H](OC)C(=O)[C@H](C)C[C@H](C)/C=C/C=C/C=C/1C [Ridaforolimus] (max concentration tested 100 nM)", "Observed measurement": 0}
{"Molecule": "CCN(CCO)CCCOc1ccc2c(Nc3cc(CC(=O)Nc4cccc(F)c4)[nH]n3)ncnc2c1 [AZD1152-HQPA] (max concentration tested 1000 nM)", "Observed measurement": 0.941}
{"Molecule": "COc1nc(N)nc2c1ncn2[C@@H]1O[C@H](CO)[C@@H](O)[C@@H]1O [Nelarabine] (max concentration tested 10000 nM)", "Observed measurement": 0.0142}

Enquiry: Fill blank: measured drug sensitivity score of the molecule O=C(Nc1ccc2[nH]nc(-c3ccncc3)c2c1)[C@@H]1CCN(CC(=O)N2CCN(c3ccc(-c4ncccn4)cc3)CC2)C1 (max concentration tested 10000 nM) is ____.
Return: 0.0074

----------
Could you please report measured drug sensitivity score for the items listed next?
# System: ST8814
# Assay procedure: drug sensitivity score (DSS, CellTox-Green cytotoxicity, 72 h) (DSS (dimensionless)); higher = more cytotoxic; extreme values may be limits of the assay
Answers are plain numbers.

// known answers, use as guide
{"Compound": "CC[C@H](CC#N)OC(=O)N[C@@H](C)c1cccc(NC(=O)Nc2ccc(-c3cnco3)c(OC)c2)c1 [AVN944] (max concentration tested 10000 nM)", "drug sensitivity score": 7.26}
{"Compound": "Cc1ccc(C(=O)N(CCCN)[C@@H](c2oc3cc(Cl)ccc3c(=O)c2Cc2ccccc2)C(C)C)cc1 (max concentration tested 100 nM)", "drug sensitivity score": 0}

As a next step, examine the compound that follows.
Enquiry: Fill blank: measured drug sensitivity score of the compound N#Cc1ccc(COC[C@H]2O[C@@H](n3c(NCc4ccc(Cl)c(Cl)c4)nc4c(N)ncnc43)[C@H](O)[C@@H]2O)cc1 (max concentration tested 10000 nM) is ____.
Return: 0

----------
# Tested on: S1507-2
# Assay procedure: % inhibition of CellTiter-Glo viability at highest tested concentration (72 h), relative to DMSO and benzethonium chloride controls; higher = more inhibition
Could you please report measured % inhibition for the items listed next?
Give bare numbers, in %.

// known answers, use as guide
{"Molecule": "COc1cc2c(NC3CCN(C(C)C)CC3)nc(C3CCCCC3)nc2cc1OCCCN1CCCC1 [UNC0638] (max concentration tested 10000 nM)", "Observed measurement": 99.6}
{"Molecule": "Cc1cnc(NC(=O)Nc2cc(Br)c(C)cc2OC[C@@H]2CNCCO2)cn1 [Rabusertib] (max concentration tested 1000 nM)", "Observed measurement": 51.1}

Enquiry: Fill blank: measured % inhibition of the molecule O=C(O)CCCc1ccc(N(CCCl)CCCl)cc1 [Chlorambucil] (max concentration tested 10000 nM) is ____.
Return: -14.4

----------
Could you please report measured relative IC50 for the items listed next?
# Tested on: S462
# Assay procedure: relative IC50 (inflection point of fitted dose-response curve, CellTiter-Glo viability, 72 h; top asymptote may be below 50% inhibition); higher = less potent
Give bare numbers, in nM.

{"Smiles entry": "CC(=O)[C@]1(O)Cc2c(O)c3c(c(O)c2[C@@H](O[C@H]2C[C@H](N)[C@H](O)[C@H](C)O2)C1)C(=O)c1ccccc1C3=O", "relative IC50 [nM]": 9.47}
{"Smiles entry": "CC(=O)Nc1cccc(-n2c(=O)n(C3CC3)c(=O)c3c(Nc4ccc(I)cc4F)n(C)c(=O)c(C)c32)c1", "relative IC50 [nM]": 9.9}
{"Smiles entry": "COc1c(C)cnc(Cn2cnc3c(Cl)nc(N)nc32)c1C", "relative IC50 [nM]": 186}

Enquiry: Fill blank: measured relative IC50 of the molecule `Nc1nc(NC2CC2)cc(-c2cccc(Cl)c2Cl)n1` is ____.
Return: 6910

----------
# Tested on: HSC2 (primary human Schwann cells)
# Assay procedure: drug sensitivity score (DSS, CellTiter-Glo viability, 72 h) (DSS (dimensionless)); higher = more sensitive; extreme values may be limits of the assay
# drug sensitivity score >= 2 gives True, anything below gives False

Observe how each entry below is paired with its result.
{"Compound": "C=CC[C@@H]1/C=C(\\C)C[C@H](C)C[C@H](OC)[C@H]2O[C@@](O)(C(=O)C(=O)N3CCCC[C@H]3C(=O)O[C@H](/C(C)=C/[C@@H]3CC[C@@H](O)[C@H](OC)C3)[C@H](C)[C@@H](O)CC1=O)[C@H](C)C[C@@H]2OC [Tacrolimus] (max concentration tested 10000 nM)", "Assigned category": "False"}
{"Compound": "CC(C)(C)c1nc(-c2cccc(NS(=O)(=O)c3c(F)cccc3F)c2F)c(-c2ccnc(N)n2)s1 [Dabrafenib] (max concentration tested 2500 nM)", "Assigned category": "True"}
{"Compound": "COc1cc(CCc2cc(NC(=O)c3ccc(N4CC(C)NC(C)C4)cc3)n[nH]2)cc(OC)c1 (stereo not drawn) [AZD4547] (max concentration tested 1000 nM)", "Assigned category": "False"}
{"Compound": "O=C(/C=C/c1cccnc1)NCCCCC1CCN(C(=O)c2ccccc2)CC1 [Daporinad] (max concentration tested 1000 nM)", "Assigned category": "True"}

Now consider a different compound.
Enquiry: Textbook exercise: given the entry COc1cc(O)c2c(c1)/C=C/C[C@H](O)[C@H](O)C(=O)/C=C\C[C@H](C)OC2=O [(5Z)-7-Oxozeaenol] (max concentration tested 10000 nM) , state whether its drug sensitivity score is greater than or equal to 2.
Return: True

----------
# System: HSC1
# Assay procedure: relative IC50 (inflection point of fitted dose-response curve, CellTox-Green cytotoxicity, 72 h; top asymptote may be below 50%); higher = less potent
Could you please report measured relative IC50 for the items listed next?

{"Compound": "CO[C@H]1C[C@@H]2CC[C@@H](C)[C@@](O)(O2)C(=O)C(=O)N2CCCC[C@H]2C(=O)O[C@H]([C@H](C)C[C@@H]2CC[C@@H](OP(C)(C)=O)[C@H](OC)C2)CC(=O)[C@H](C)/C=C(\\C)[C@@H](O)[C@@H](OC)C(=O)[C@H](C)C[C@H](C)/C=C/C=C/C=C/1C [Ridaforolimus]", "Observed measurement": "> 100 nM"}
{"Compound": "Cc1cc(C(C)Nc2ccccc2)c2nc(N3CCOCC3)cc(=O)n2c1 (stereo unspecified) [TGX-221]", "Observed measurement": "> 10000 nM"}
{"Compound": "COc1cc2ncnc(Nc3ccc(F)c(Cl)c3)c2cc1NC(=O)/C=C/CN1CCCCC1 [Dacomitinib]", "Observed measurement": "> 1000 nM"}
{"Compound": "O=C(c1ccc(OCCN2CCCCC2)cc1)c1c(-c2ccc(O)cc2)sc2cc(O)ccc12 [Raloxifene]", "Observed measurement": "> 10000 nM"}
{"Compound": "Nc1nc(NC2CC2)cc(-c2cccc(Cl)c2Cl)n1 [TH588]", "Observed measurement": "4520 nM"}
{"Compound": "CCn1c(-c2nonc2N)nc2cnc(Oc3cccc(NC(=O)c4ccc(OCCN5CCOCC5)cc4)c3)cc21", "Observed measurement": "2520 nM"}
{"Compound": "CN(N=O)C(=O)N[C@@H]1[C@@H](O)[C@H](O)[C@@H](CO)O[C@@H]1O [Streptozocin]", "Observed measurement": "> 10000 nM"}
{"Compound": "C=CCn1c(=O)c2cnc(Nc3ccc(N4CCN(C)CC4)cc3)nc2n1-c1cccc(C(C)(C)O)n1 [MK1775]", "Observed measurement": "1210 nM"}

Okay, here is my list. What is relative IC50 for each of these?
1. Cn1c(Nc2ccc(C(F)(F)F)cc2)nc2cc(Oc3ccnc(-c4ncc(C(F)(F)F)[nH]4)c3)ccc21 [RAF265]
2. CC(C)C[C@@H](C(=O)N[C@H](C(=O)OC1CCCC1)c1ccccc1)[C@H](O)C(=O)NO [Tosedostat]
3. O=C1c2c(O)ccc(O)c2C(=O)c2c(NCCNCCO)ccc(NCCNCCO)c21 [Mitoxantrone]
4. CC(=O)O[C@]1(C(C)=O)CC[C@H]2[C@@H]3C=C(C)C4=CC(=O)CC[C@]4(C)[C@H]3CC[C@@]21C [Megestrol]
5. Cc1cc2c(F)c(Oc3ncnn4cc(OC[C@@H](C)O)c(C)c34)ccc2[nH]1 [Brivanib]
6. O=[N+]([O-])c1ccc2c(c1)S(=O)(=O)C=C2 [Stattic]
7. CCC1(c2ccc(N)cc2)CCC(=O)NC1=O (stereo unspecified) [Aminoglutethimide]
8. CCCCC/C=C/C=C1/C(=O)C=C[C@@H]1C/C=C\CCCC(=O)O [15D-PGJ2]

Return:
1: > 1000 nM; 2: > 10000 nM; 3: > 1000 nM; 4: > 10000 nM; 5: > 1000 nM; 6: 2450 nM; 7: > 10000 nM; 8: > 800 nM

Values were extracted from the supplement of paper PMC5579334.
